- protocol-text: yeast display, Sf9 membrane polyspecificity reagent, FACS + sequencing; frameworks hold sequencing errors
measurement-kind: polyreactivity (PSR sort gate)

QVQLVESGGGLVQAGGSLRLSCAASGSTFAWYDMGWYRQAPGNEREFVAAIDYGGGSTYADSVKGRFTISRDKEKNTVYLQMNSLKPEDTAVYYCNADNWVYLYDYWGQGTQVTVSS ... low polyreactivity
QVQLVESGGGLVQAGGSLRLSCAASGIFVDNAMGWYRQAPGKERELVAAITSSTDSTYYADSVKGRFTISRDNAKNTVYLQMNSLKPEDTAVYYCAVARPGGFYFLVHYGYGYWGQGPQVTVSS ... low polyreactivity
QVQLVESGGGLVQAGGSLRLSCAASGLTFGYYTMGWYRQAPGKERELVAAITYSGGSTYYADSVKGRFTISRDNAKNTVYLQMNSLKPEDTAVYYCAAEGPVYTTYEYWGQGTQVTVSS ... low polyreactivity

Just for reference, the nanobody polyreactivity screen of Harvey et al. (2022) is where these values come from.
